Hello, the source for this data is PubChem BioAssay (NCI), in case you need it.

- System: NCI-H23 lung
- Test: NCI tumour cell line growth inhibition, 48 h
We begin with a simple list: items and their reported TGI.

As a guide, the following entries are already answered.
Q: Quick one: TGI for Cc1cccc(C)c1NC(=O)C(=O)CC(=O)c1cccc([N+](=O)[O-])c1 ?
A: > 100 µM

Q: Queued: c1ccc(-c2cnc(-c3ccc(-c4ncc(-c5ccccc5)o4)cc3)o2)cc1
A: > 100 µM

Q: Field entry: CCOC(CN(C)C(=S)Nc1cccc2ccccc12)OCC
A: > 10 µM

Q: And what about the compound Cc1c(C#N)c(N)n(C2OCC(O)C(O)C2O)c(=S)c1C#N (stereo unspecified) ?
A: > 100 µM

Q: Query COC(=O)/C(=C\c1ccc(N(CCC#N)CCC#N)cc1)NC(=O)c1cc([N+](=O)[O-])ccc1Cl next
A: > 100 µM

Further cases:
Q: Can you share its TGI? I mean this compound: CC(C)C1=C2CCC3(C)C(CCC4C5C6OCC5(CCC6(C)C)CCC43C)C2(C)CC1 (stereo unspecified)
A: 54.5 µM

---

- Test system: TK-10 renal
- Test: NCI tumour cell line growth inhibition, 48 h
Some compounds, each annotated with its measured TGI.

Solved entries:
Q: Which TGI value is on record for OCC(O)CNc1ccnc2cc(Cl)ccc12 (stereo not drawn) ?
A: > 100 µM

Q: What do we get for CC1CN1c1c(C(=O)/C=C/c2ccc(Cl)cc2)c(-c2ccccc2)nn(C)c1=O (stereo not drawn) ?
A: 8.94 µM

Moving on to the next compound.
Q: Entry Cc1cc(C(C)(C)C)cc(Cc2cc(C(C)(C)C)cc(Cc3cc(C(C)(C)C)cc(C)c3O)c2O)c1O has what TGI?
A: 30 µM

---

- Test system: K-562 leukemia
- Test: NCI tumour cell line growth inhibition, 48 h
Measured Attribute: TGI

A selection of reference data follows.
Q: Which TGI value belongs to c1ccc(C2=Nn3c(CCCCCCCCc4nnc5n4N=C(c4ccccc4)CS5)nnc3SC2)cc1 ?
A: > 79.7 µM

Q: // next record C/C(CCn1[nH]c(=O)ccc1=O)=N\OCCCc1ccccc1
A: > 100 µM

Q: Record: CC(C)(C)C(=O)C(Cc1ccccc1)C(=O)C(C)(C)C
A: > 100 µM

Next, consider the following molecule.
Q: I'd like to know its TGI. The molecule in question is CCN1C(=O)N(CC)C2Nn3c(s/c(=C4\C(=O)N(C)c5ccccc54)c3=O)=NC21 (stereo not given)
A: > 100 µM

---

TGI values by entry
- Test system: HT29 colon
- Test: NCI tumour cell line growth inhibition, 48 h

Worked cases, answers included:
Q: Find the recorded TGI belonging to CCOC(=O)/C(=C/c1cccc(C#N)c1)N(CC)CC and report it.
A: > 100 µM

Q: Then what about the molecule N#CCCN(CCC#N)c1ccc(/C=C2\SC(=S)NC2=O)cc1Br ?
A: > 100 µM

Q: Another: Cc1cccc(C(C)C)c1NC(=O)C(=O)C(C(=O)c1ccccc1F)C1OC(=O)c2ccccc21 (stereo not given)
A: 71.7 µM

Q: Try this molecule too: Cc1cccc(C)c1NC(=O)C(=O)CC(=O)c1cccc([N+](=O)[O-])c1
A: > 100 µM

Q: Subsequent entry: Cc1ccc(S(=O)(=O)NC(=O)NC2=NC(C)(C)N(c3ccc(Cl)c(Cl)c3)C(N)=N2)cc1
A: > 100 µM

Others:
Q: Fill blank: measured TGI of the molecule Cc1nn(C(=O)c2ccc(Cl)cc2)c2c1C(c1ccc(O)cc1)SC(N)=N2 (stereo not given) is ____.
A: > 10 µM

Q: // next record COC(=O)c1cc(/C=C/c2ccc(S(N)(=O)=O)cc2)ccc1O
A: > 100 µM

Q: Also, N#CC(C(=O)CCC(=O)Nc1cccc(C(F)(F)F)c1)c1ccc(Cl)cc1 (stereo not given) please.
A: > 100 µM

Q: Another: O=C(Nc1ccc(-n2cc(-c3ccncc3)c(-c3ccc(O)c(Cl)c3)n2)cc1)Nc1cccc(Cl)c1Cl
A: 10.4 µM

Q: Now the molecule COC(=O)C1(Cc2ccc3c(c2)CCC3)Cc2cc3c(cc2C1)CCC3
A: 89.3 µM
